Origin of measurements: patent US20200247894A1

measured.on: T1, Macaca fascicularis IL2Rγ extracellular domain expressed with a C-terminal myc-myc-hexahistidine tag (Macaca fascicularis)
T1 construct: whole entry is the tagged construct; also called mfIL-2Rg-MMH
T1 chain: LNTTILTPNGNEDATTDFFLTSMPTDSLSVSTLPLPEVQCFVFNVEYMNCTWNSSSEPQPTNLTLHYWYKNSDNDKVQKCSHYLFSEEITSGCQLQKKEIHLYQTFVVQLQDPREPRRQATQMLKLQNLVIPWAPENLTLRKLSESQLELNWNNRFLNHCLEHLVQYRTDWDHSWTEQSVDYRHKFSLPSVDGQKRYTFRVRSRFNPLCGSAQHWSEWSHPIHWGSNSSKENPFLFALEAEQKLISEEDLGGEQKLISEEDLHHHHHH
assay.protocol: SPR Biacore 4000, anti-hFc-captured mAb, 37 C
Experimental: Equilibrium dissociation constants (KD values) for IL-2Rγ binding to purified anti-IL2Rγ monoclonal antibodies were determined using a Biacore 4000 instrument equipped with a real-time surface plasmon resonance biosensor. […] The dissociation of monoclonal antibody bound IL2Rγ reagents were monitored for 8-10 minutes in HBS-ET running buffer. […] Binding dissociation equilibrium constants (KD) and dissociative half-lives (t_{1/2}) were calculated from the kinetic rate constants as: […]
observation.type: kon (M⁻¹ s⁻¹)
Quick reminder: number only, in M⁻¹ s⁻¹, skip the unit.

Worked cases, answers included:
{"binder": "H4H12871P (antibody, human IgG4 S228P, kappa, V domains shown, fully human anti-IL2Rgamma mAb, human IgG4 Fc; also called REGN9434) VH: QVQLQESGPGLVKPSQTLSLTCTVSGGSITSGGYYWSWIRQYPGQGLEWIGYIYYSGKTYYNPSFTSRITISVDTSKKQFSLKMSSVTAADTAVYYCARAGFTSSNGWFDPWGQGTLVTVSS VL: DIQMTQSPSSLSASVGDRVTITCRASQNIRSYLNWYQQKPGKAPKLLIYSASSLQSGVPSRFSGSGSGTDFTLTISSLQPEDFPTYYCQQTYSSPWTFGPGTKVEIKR", "kon / M⁻¹ s⁻¹": 206000}
{"binder": "H4H13541P (antibody, human IgG4 S228P, kappa, V domains shown, fully human anti-IL2Rgamma mAb, human IgG4 Fc) VH: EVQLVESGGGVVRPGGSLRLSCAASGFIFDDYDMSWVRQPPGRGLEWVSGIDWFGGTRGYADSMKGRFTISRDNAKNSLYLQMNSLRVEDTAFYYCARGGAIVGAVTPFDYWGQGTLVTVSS VL: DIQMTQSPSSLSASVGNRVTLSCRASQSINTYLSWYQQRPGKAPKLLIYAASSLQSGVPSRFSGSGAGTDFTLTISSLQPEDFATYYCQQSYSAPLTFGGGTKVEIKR", "kon / M⁻¹ s⁻¹": 106000}
{"binder": "H4H12890P (antibody, human IgG4 S228P, kappa, V domains shown, fully human anti-IL2Rgamma mAb, human IgG4 Fc) VH: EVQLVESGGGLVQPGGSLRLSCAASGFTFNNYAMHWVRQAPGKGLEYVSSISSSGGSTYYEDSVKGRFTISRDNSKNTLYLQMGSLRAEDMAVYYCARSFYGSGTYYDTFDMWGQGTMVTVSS VL: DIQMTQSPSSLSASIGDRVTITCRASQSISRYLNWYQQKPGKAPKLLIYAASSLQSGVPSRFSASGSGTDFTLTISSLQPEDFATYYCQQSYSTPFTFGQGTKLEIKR", "kon / M⁻¹ s⁻¹": 93600}
{"binder": "H4H12858P (antibody, human IgG4 S228P, kappa, V domains shown, fully human anti-IL2Rgamma mAb, human IgG4 Fc; also called REGN9433) VH: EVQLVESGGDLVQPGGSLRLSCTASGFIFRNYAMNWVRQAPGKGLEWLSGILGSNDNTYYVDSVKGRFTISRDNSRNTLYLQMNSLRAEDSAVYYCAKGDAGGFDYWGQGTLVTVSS VL: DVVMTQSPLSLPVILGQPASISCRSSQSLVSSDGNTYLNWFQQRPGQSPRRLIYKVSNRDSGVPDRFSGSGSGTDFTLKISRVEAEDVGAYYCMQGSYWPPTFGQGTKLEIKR", "kon / M⁻¹ s⁻¹": 309000}

Supply kon value. Item: H4H12884P (antibody, human IgG4 S228P, kappa, V domains shown, fully human anti-IL2Rgamma mAb, human IgG4 Fc) VH: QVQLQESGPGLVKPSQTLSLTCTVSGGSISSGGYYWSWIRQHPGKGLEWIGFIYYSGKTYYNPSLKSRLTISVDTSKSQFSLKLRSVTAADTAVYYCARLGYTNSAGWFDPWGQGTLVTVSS VL: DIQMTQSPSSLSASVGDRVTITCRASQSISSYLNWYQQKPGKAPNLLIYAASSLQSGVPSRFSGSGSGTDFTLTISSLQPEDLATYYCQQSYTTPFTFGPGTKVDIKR
200000
